Data credit: patent US10710978B2

# test.target: OSR1 (Homo sapiens (Human))
# Sequence (O95747 whole entry): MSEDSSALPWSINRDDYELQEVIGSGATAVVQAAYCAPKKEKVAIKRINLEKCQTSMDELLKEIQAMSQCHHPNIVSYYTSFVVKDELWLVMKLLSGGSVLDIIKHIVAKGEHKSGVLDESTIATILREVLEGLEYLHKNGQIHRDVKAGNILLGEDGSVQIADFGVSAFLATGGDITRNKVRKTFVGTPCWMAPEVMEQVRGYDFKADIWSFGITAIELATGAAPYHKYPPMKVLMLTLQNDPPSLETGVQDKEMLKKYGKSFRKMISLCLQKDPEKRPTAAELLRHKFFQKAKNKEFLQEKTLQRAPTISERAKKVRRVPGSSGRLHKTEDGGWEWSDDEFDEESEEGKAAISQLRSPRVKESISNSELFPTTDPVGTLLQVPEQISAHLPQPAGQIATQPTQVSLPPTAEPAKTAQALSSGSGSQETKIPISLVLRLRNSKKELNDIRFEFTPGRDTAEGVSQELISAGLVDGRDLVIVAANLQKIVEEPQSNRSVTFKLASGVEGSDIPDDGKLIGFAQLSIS
# test: KiNativ assay
# Type: binding
# test.settings: H929 live cell, read-out: inhibition (10 μM)
endpoint.name: inhibition at 10 µM (%)
Numbers only, in %.

Nc1ncc(-c2ccc(NS(=O)(=O)C3CC3)cc2OC2CCCCC2)cc1-c1ccc2c(c1)CCNC2=O    26.8

Okay, here is my list. What is inhibition at 10 µM for each of these?
1. COc1cc(NS(=O)(=O)C2CC2)ccc1-c1cnc(N)c(-c2ccc3c(c2)CCNC3=O)c1
2. CN(C1CC1)S(=O)(=O)c1ccc(-c2cnc(N)c(-c3ccc4c(c3)CCNC4=O)c2)c(F)c1
3. Nc1ncc(-c2cccc3ncsc23)cc1-c1ccc2c(c1)CCNC2=O
4. Nc1ncc(-c2cccc([N+](=O)[O-])c2F)cc1-c1ccc2c(c1)CCNC2=O
5. Nc1ncc(-c2ccc(NS(=O)(=O)C3CC3)cc2F)cc1-c1ccc2c(c1)CCNC2=O

1: 16.6; 2: 22.8; 3: 1.4; 4: -11.8; 5: 8.8
